Please respond with reported cells remaining coupled ten minutes after the onset of octanol superfusion for every item in the list.
# MEASURED TARGET: Cx43 (Homo sapiens)
# Construct: expressed in transfected cells; host or cells: N2a (mouse neuroblastoma) cells, transiently transfected
# Sequence (P17302 2-382 limits assumed): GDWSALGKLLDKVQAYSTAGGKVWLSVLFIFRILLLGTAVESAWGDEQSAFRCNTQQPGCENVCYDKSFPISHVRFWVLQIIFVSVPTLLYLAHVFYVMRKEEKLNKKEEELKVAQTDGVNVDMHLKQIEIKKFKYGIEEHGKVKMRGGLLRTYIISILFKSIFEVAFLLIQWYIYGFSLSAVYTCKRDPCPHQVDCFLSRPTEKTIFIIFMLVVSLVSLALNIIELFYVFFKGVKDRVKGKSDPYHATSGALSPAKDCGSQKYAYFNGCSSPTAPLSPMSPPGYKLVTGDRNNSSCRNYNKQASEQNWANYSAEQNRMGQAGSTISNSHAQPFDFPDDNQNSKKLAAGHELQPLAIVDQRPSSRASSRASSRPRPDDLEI
# EXPERIMENTAL PROTOCOL: Octanol-induced uncoupling, dual-cell patch clamp, junctional conductance (Gj) in Cx43-expressing N2A cell pairs
# Assay type: cell-based, mouse
# PROTOCOL CONDITIONS: peptide 100 μM in pipette; 1.5 mM octanol, 10 min

IN: Specify cells remaining coupled ten minutes after the onset of octanol superfusion for cyclo(RRPPYN) [ZP2778] and stop.
OUT: 60%

IN: Specify cells remaining coupled ten minutes after the onset of octanol superfusion for cyclo(RRPPWN) [ZP2782] and stop.
OUT: 20%
